- Protocol summary: gradient 5% acetonitrile 3 min, to 50% in 2 min, to 85% in 15 min, held 3 min, 100 µL/min
- Conditions used: column: Zorbax Extend-C18 2.1 x 50 mm; eluents: water / acetonitrile, 0.1% formic acid
Measurement name: RP-LC retention time (s)

compound="O=C(NCC1CCCO1)c1ccc(CN2CCN(Cc3ccc(F)cc3)C(=O)C2=O)cc1 (centres undefined)" measurement_name="RP-LC retention time" result_number=676
compound=CCCCN(C)C(=O)Cn1nc2c3cc(-c4cc(C)ccc4C)nn3ccn2c1=O measurement_name="RP-LC retention time" result_number=973
compound=CCCn1cc(CNC(=O)CN2CCN(Cc3ccc(F)cc3)C2=O)c(C)n1 measurement_name="RP-LC retention time" result_number=674
compound=CC(C)Cn1c(=O)c(-c2ccc(C(=O)N3CCN(C)CC3)cc2)nc2ccccc21 measurement_name="RP-LC retention time" result_number=670
compound=O=C(CSCC(=O)N1CCOCC1)Nc1nc(-c2ccc3c(c2)OCO3)cs1 measurement_name="RP-LC retention time" result_number=681
compound=CCc1nnc2ccc(-c3noc(COc4ccc(Cl)cc4)n3)cn12 measurement_name="RP-LC retention time" result_number=770
compound=Cc1ccccc1Nc1c(-c2ccc(N(C)C)cc2)nc2ccccn12 measurement_name="RP-LC retention time" result_number=767
compound="Cn1cc(C(CNC(=O)Nc2ccc3c(c2)OCO3)c2cccnc2)c2ccccc21 (centres undefined)" measurement_name="RP-LC retention time" result_number=684
compound=Cc1cn2c3c(=O)n(Cc4c(F)cccc4Cl)c(=O)n(C)c3nc2n1C(C)C measurement_name="RP-LC retention time" result_number=886
